tested on: SK-MEL-5; test: NCI tumour cell line growth inhibition, 48 h
Activity calls are given as the source filed them. Rule as the data show it: active = GI50 up to about 1.1 µM and inactive = higher.
Outcomes: active, inactive

| molecule | target-desc | class-name |
| --- | --- | --- |
| N#C[C@H](c1ccccn1)c1nc2ccccc2nc1Cl | SK-MEL-5 | inactive |
| O=C(NS(=O)(=O)c1ccccc1)C(Cc1ccccc1)C(Cc1ccccc1)C(=O)NS(=O)(=O)c1ccccc1 (stereo not drawn) | SK-MEL-5 | inactive |
| CCc1nn(CN2CCOCC2)c(=S)n1/N=C/c1ccc(-c2ccc(Cl)cc2)o1 | SK-MEL-5 | inactive |
| CC(=O)/C(=C\C1=CCCO1)C(=O)Nc1ccccc1C | SK-MEL-5 | inactive |
| COc1c(-c2ccc(F)cc2)oc2cc(O)cc(O)c2c1=O | SK-MEL-5 | inactive |
| Cn1cc(S(=O)(=O)NC(=O)Nc2ccc(Cl)cc2)c(=O)c2ccc(F)cc21 | SK-MEL-5 | inactive |
| O=C(O)/C(=C/C=C/c1ccccc1)c1csc(-c2nc(/C(=C\C=C\c3ccccc3)C(=O)O)cs2)n1 | SK-MEL-5 | inactive |
| CCCC(=O)OCC(COC(=O)CCC)OC(=O)CCC | SK-MEL-5 | inactive |
| CC(=O)ONC(C(=O)C(C)(C)C)C(=O)C(C)(C)C | SK-MEL-5 | inactive |
| COC(=O)C(Cc1ccccc1)NC(=O)CCCNC(=O)OCc1ccccc1 (stereo not drawn) | SK-MEL-5 | inactive |
| O=C1C(NCCc2cc(Br)c(O)c(Br)c2)=CC(=O)c2ncccc21 | SK-MEL-5 | inactive |
| Clc1cc(Cl)cc(/C=N/C23CC4CC(CC(C4)C2)C3)c1 | SK-MEL-5 | inactive |
| CC(=O)OCC1OC(OC2C(CSC3OC(COC(C)=O)C(OC(C)=O)C(OC(C)=O)C3OC(C)=O)OC(OC(C)=O)C(OC(C)=O)C2OC(C)=O)C(OC(C)=O)C(OC(C)=O)C1OC(C)=O (stereo not drawn) | SK-MEL-5 | inactive |
| C=C1C(=O)OC2/C=C(\C)C(O)/C=C\C(C)(O)CC(OC(=O)/C(C)=C/C)C12 (stereo not drawn) | SK-MEL-5 | inactive |
| COc1ccc(NC(=S)c2ccc([N+](=O)[O-])o2)cc1 | SK-MEL-5 | active |
| CC1N=C(c2ccccc2)OC1=O (stereo not drawn) | SK-MEL-5 | inactive |
| Cc1cc2c(c(/C=N/c3ccccc3O)c1)OC1(C=C2)Oc2ccccc2C(=O)N1C (stereo not drawn) | SK-MEL-5 | inactive |
| COc1cc(C(N)=O)c(OC)c(OC)c1OC | SK-MEL-5 | inactive |

====

system: SF-539; assay: NCI tumour cell line growth inhibition, 48 h
Activity calls are given as the source filed them. Rule as the data show it: active = GI50 up to about 1.1 µM and inactive = higher.

| compound | GI50 |
| --- | --- |
| CC(=O)OCC1OC(c2nnc(C)o2)=CC(OC(C)=O)C1OC(C)=O (stereo not given) | > 100 µM (inactive) |
| COC(=O)N[C@H](C(=O)O)C(C)O[Si](C)(C)C(C)(C)C (stereo not given in full) | > 100 µM (inactive) |
| CCOC(=O)c1csc(NC(=O)CCN2CCN(C)CC2)n1 | > 100 µM (inactive) |
| COc1ccc(C(=O)/C=C/c2ccc(OCCCOc3ccc(/C=C/C(=O)c4ccc(OC)cc4)cc3)cc2)cc1 | 28.8 µM (inactive) |
| CCOC(=O)C(NO)C(Sc1ccccc1)c1ccc(OC)cc1 (stereo not given) | > 100 µM (inactive) |

Data origin: ChEMBL document CHEMBL1201862
